# assay_details: Human HepG2 cell viability assay in 384 well format
# Type: toxicity, cell-based
# Parameters: dose 125 nL, time 70.5 hour; concentration not given beside the values
# condition_context: HepG2 cells, read-out: Inhibition
Would you kindly list cytotoxicity at 70.5 h for each of these compounds?

compound	reported_value
O=C(NCC1CC1)C1CCC2(CCN(C(=O)c3ccccn3)CC2)O1 (centres undefined)	20.3%
Cc1cnn(-c2ccc(S(N)(=O)=O)cc2F)c1	20%
O=C(NCCc1noc(C2CCCC2)n1)c1cn2ccsc2n1	-6.72%

Hello, I would appreciate it if you could give cytotoxicity at 70.5 h for each entry below.
1. CNC(=O)C1(Cc2cc(C(C)C)no2)CCN(Cc2cccnc2)C1 (centres undefined)
2. Cn1cc(CN2CCC(F)(F)C3(CCN(c4ncc(F)cn4)C3)C2)cn1 (centres undefined)
3. N#CC1(NC(=O)c2cc(Cl)c3c(c2)OCCCO3)CCC1

["-5.78%", "-13.8%", "-4.84%"]

---

# assay_details: Human HepG2 cell viability assay in 384 well format
# Type: toxicity, cell-based
# Design: dose 125 nL, time 70.5 hour; concentration not given beside the values
# condition_context: HepG2 cells, read-out: Inhibition
value_kind: cytotoxicity at 70.5 h (%)
Give bare numbers, in %.

molecule	reported_value
CS(=O)(=O)NC(=O)c1ccn(-c2ccccc2Cl)n1	-1.86
CSCC[C@H](NC(=O)CCn1ccc2c(Br)cccc21)C(=O)O	-16.3
O=C(CNCC1CCCN1c1cccnn1)NCCc1cccs1 (stereo not drawn)	-1.9
Cc1nc(C(=O)N2CCCC(c3ccc4sc(N)nc4n3)C2)co1 (stereo not drawn)	-7.73
CCOc1ccc(S(=O)(=O)N(CCOC)Cc2ccncc2)cc1F	35.3

Hello, I would appreciate it if you could give cytotoxicity at 70.5 h for each entry below.
1. Cc1nc(NC(=O)CCOCC(F)(F)F)ccc1Br
2. CCC[C@@H]1CN(Cc2c[nH]nc2-c2ccc(F)cc2)C[C@H]1NS(C)(=O)=O
3. CN1CCN(c2ccc(NS(=O)(=O)c3ccc(Cl)s3)cc2C(=O)O)CC1
4. Cc1cc(C(=O)NC2CCc3nc(C)cn3C2)[nH]n1 (stereo not drawn)
5. Cn1ccc(C(=O)NC2CCC23CCN(Cc2cccnc2)CC3)c1 (stereo not drawn)
6. Cc1nnc(Nc2cccc(C3CCN(CCO)CC3)n2)s1
7. CN1CCC(Cc2nc(-c3cnccn3)n(C3CCS(=O)(=O)C3)n2)CC1 (stereo not drawn)
8. O[C@]12CCNC[C@H]1CN(c1nccc3ccccc13)CC2

2.27
-3.18
-2.11
-5.51
-7.38
-13.5
0.375
22.6

Hello, I would appreciate it if you could give cytotoxicity at 70.5 h for each entry below.
1. CNC(=O)[C@@H]1COC[C@H]2CN(C(=O)c3ccc(C)c(F)c3)C[C@H]21
2. CC[C@H](C)[C@H](N)C(=O)N1CC(=O)c2sc(NC3CCCCC3)nc2C1
3. CC(c1ccncc1)N(C)S(C)(=O)=O (stereo not drawn)
4. CCCN(CC)C(=O)c1cc2c(c3ccccc3n2C)n1C(=O)N(C)C

1. -6.14
2. 3.97
3. -5.4
4. 4.9

Hello, I would appreciate it if you could give cytotoxicity at 70.5 h for each entry below.
1. Cn1ccc2cc(C(=O)Nc3nc[nH]n3)ccc21
2. Cn1ccnc1CN1CCCCC1c1nc(-c2ccccc2)no1 (stereo not drawn)
3. COCCN1C[C@H]2[C@@H](C1)N(Cc1ccc(C)o1)CC[C@H]2OC
4. CN(C)CCN1CCC2(CCN(C(=O)c3cccnc3)CC2)C1=O
5. CS(=O)(=O)N[C@@H]1CN(Cc2ccc3ccccc3c2)C[C@H]1O
6. CC(=O)NCc1noc2c1CN(Cc1cccs1)CC2

15.8
-10.6
-5.94
-4.08
-2.76
-1.08
